Origin of measurements: the supplement of paper PMC8728848

Molecular target: Gal(b1-3)GlcNAc(b1-3)Gal(b1-4)GlcNAc
Test: glycan array binding signal (z-score within array); higher = stronger binding
Details: glycan notation: IUPAC condensed, linker removed
About 410 targets per protein were measured; listed, in parts, are those with the strongest signals and a random draw of the rest.

{"columns": ["Binder", "glycan array binding signal (z-score)"],
 "data": [
  ["DrGal9 (Danio rerio) (protein) MAFYQQPPYYNPRIPFSGPIQGGLQDGKSIIISGRVLPGANRFHVNLQCGSHSEANVALHFNPRYEDTDYVVNNSYLNRTWGSEERKYESPFAQGQTFTLQILVAQDKYKISTNGRHFMDYKHRIPFTQVDTVAVEGMVEVNSVAFQNPAGFIPPQAGYAPQYAVPPGCGFPAFPSAPNYTIPHKTVMNGGLHPGKNIVINGVVNPNAKSIIFNLCYRSGIAFHYNPRFDENVVVRNTNQMEKWGAEERFGGLPFHKGQPFQVTISCNPQHYNVFVNGKQEHTYKHRYTKLNDIDILEICGDLQLTSVQA", -0.053]
]}
